# system: human immunoglobulin IgG
# protocol-notes: SPR, binder on SA chip, dissociation at pH 4.0, 1:1 Langmuir

binder: OXADac-PG16 (designed binder) MGAGTPVTAPLAGTIWKVLASEGQTVAAGEVLLILEAMKMETEIRAAQAGTVRGIAVKAGDAVAVGDTLMTLAGSGSDLYDDDDKGIITSLYKKAGSAAAPFTDTYKLILNGKTLKGETITEAVDAATAEKVFKQYANEHGVDGEWTYDPETKTFTVTE
koff [s⁻¹]: 0.00013
--
binder: OXADac-PG17 (designed binder) MGAGTPVTAPLAGTIWKVLASEGQTVAAGEVLLILEAMKMETEIRAAQAGTVRGIAVKAGDAVAVGDTLMTLAGSGSDLYDDDDKGIITSLYKKAGSAAAPFTDTYKLILNGKRLKGETITEAVDAATAEKVFKQYANEHGVDGEWTYDPETKTFTVTE
koff [s⁻¹]: 0.032
--
binder: OXADac-PG01 (protein) MGAGTPVTAPLAGTIWKVLASEGQTVAAGEVLLILEAMKMETEIRAAQAGTVRGIAVKAGDAVAVGDTLMTLAGSGSDLYDDDDKGIITSLYKKAGSAAAPFTDTYKLILNGKTLKGETTTEAVDAATAEKVFKQYANDNGVDGEWTYDDATKTFTVTE
koff [s⁻¹]: 4.2e-05
--
binder: OXADac-PG15 (designed binder) MGAGTPVTAPLAGTIWKVLASEGQTVAAGEVLLILEAMKMETEIRAAQAGTVRGIAVKAGDAVAVGDTLMTLAGSGSDLYDDDDKGIITSLYKKAGSAAAPFTDTYKLILNGKRLKGETTTEAVDAATAEKVFKQYANEHGVDGEWTYDPETKTFTVTE
koff [s⁻¹]: 0.00044
--
binder: OXADac-PG07 (designed binder) MGAGTPVTAPLAGTIWKVLASEGQTVAAGEVLLILEAMKMETEIRAAQAGTVRGIAVKAGDAVAVGDTLMTLAGSGSDLYDDDDKGIITSLYKKAGSAAAPFTDTYKLILNGKTLKGETTTEAVDAATAEKVFKQYANEHGVDGEWTYDPETKTFTVTE
koff [s⁻¹]: 0.00011
--
binder: OXADac-PG14 (designed binder) MGAGTPVTAPLAGTIWKVLASEGQTVAAGEVLLILEAMKMETEIRAAQAGTVRGIAVKAGDAVAVGDTLMTLAGSGSDLYDDDDKGIITSLYKKAGSAAAPFTDTYKLILNGKTLKGETTTEAVDAATAEKVFKQYANEHGVDGHWTYDPETKTFTVTE
koff [s⁻¹]: 0.04
--
binder: OXADac-PG13 (designed binder) MGAGTPVTAPLAGTIWKVLASEGQTVAAGEVLLILEAMKMETEIRAAQAGTVRGIAVKAGDAVAVGDTLMTLAGSGSDLYDDDDKGIITSLYKKAGSAAAPFTDTYKLILNGKTLKGETTTEAVDAATAEKVFKQYANEHGVHGEWTYDPETKTFTVTE
koff [s⁻¹]: 0.06
--
binder: OXADac-PG19 (designed binder) MGAGTPVTAPLAGTIWKVLASEGQTVAAGEVLLILEAMKMETEIRAAQAGTVRGIAVKAGDAVAVGDTLMTLAGSGSDLYDDDDKGIITSLYKKAGSAAAPFTDTYKLILNGKTLKGETTTEAVDAATAEKVFKHYANEHGVHGHWTYDPETKTFTVTE
koff [s⁻¹]: 0.27
